Tested on: MS2 coat protein
Assay: apparent KD of MS2 coat protein; designed switch direction (-1 OFF switch, 1 ON switch): -1; higher = weaker reporter binding
Settings: input ligand: FMN 200 uM
Readout Kind: apparent KD of MS2 coat protein (nM)
Numeric answer only, unit nM assumed.

Request: Provide the reported apparent KD of MS2 coat protein (system: MS2 coat protein) for UUUAUUAAUUAAUAUAAUAAGAUCACAUGAGGAUCACCCAUGUAGGAUAUCAGCUCGUGUAGAGCUGAGAAGGACAUAAUUAUA [ExNG3/1-B3] (Eterna round: R96, puzzle: Exclusion NG 3)
Result: 108

Request: Please indicate recorded apparent KD of MS2 coat protein of CUAAGUCGAGGAUAUGCAUGGUGACAUGAUGCCGAUGCACGACAUGAGGAUCACCCAUGUAGAAGGCGACUUAG [Eternabot (L2) Solution 50] (Eterna round: R97, puzzle: Exclusion 2) measured with MS2 coat protein.
Result: 8.04

Request: Tell me apparent KD of MS2 coat protein of UAUUAAGCAAGCAGAUCCCACAUGAGGAUCACCCAUGUGCUCGUCUUAUAAGGUACUGUGACAAAAGUCACGGUACC [Mat - Sensor, turn-off var - Eli Mod - D74] (Eterna round: R97, puzzle: Sensor, turn-off variant 1) when tested on MS2 coat protein.
Result: 121

Request: Lab note: MS2 coat protein assay, enter apparent KD of MS2 coat protein for CCCGAUGGAUAGGAUAUCCGGCAAGUAUGCUAUGGAGAAGGGUUCACAUGAGGAUCACCCAUGUGGGUUAAACG [Eternabot (L1) Solution 74] (Eterna round: R97, puzzle: Exclusion 6) here
Result: 22

###

Test system: MS2 coat protein
Assay: apparent KD of MS2 coat protein; designed switch direction (-1 OFF switch, 1 ON switch): -1; higher = weaker reporter binding
Conditions: input ligand: none
Readout Kind: apparent KD of MS2 coat protein (nM)
Answer in nM, number only, no unit symbol.

Request: Quick one: give measured apparent KD of MS2 coat protein for GGUCUACAUGAGGAUCACCCAUGUAAGGAUAUCUACAUUGAAGCUUCGGCUUCAAUGUAGAGAAGGUGCAUAAU [E1/11-B1] (Eterna round: R97, puzzle: Exclusion 1)
Result: 31.4

Request: Complete the entry with apparent KD of MS2 coat protein for CGCUGGACAGGAUAUGUUCUUGAGCACUUGAGGAUCACCCAAGUCAUCAAGAACUCAGGCACAGAAGGGUUUAUGG [salish99_ex5_r4_016] (Eterna round: R97, puzzle: Exclusion 5)
Result: 13.4

Request: Tell me measured apparent KD of MS2 coat protein for GCAAAAUAUCAGGAUAUGACUAGCUGCGGCUAGUCAGAAGGGAUGACAUGAGGAUCACCCAUGUGAUCUCGUGU [JR_Ex6_Sub028] (Eterna round: R97, puzzle: Exclusion 6) please.
Result: 177

Request: Answer with the recorded apparent KD of MS2 coat protein of UUUACAAGCUAAAGAUCCCACAUGAGGAUCACCCAUGUUCCUGGCCGUGAGGCUAGGUAAACUUUUGCUCGUCUUAU [JL TOV1 3.67] (Eterna round: R97, puzzle: Sensor, turn-off variant 1) only.
Result: 322

Request: Name the recorded apparent KD of MS2 coat protein of the sequence listed here: GUAGAGUCAGGAUAUACAAGAUCGAUAGAUCAAAGGUCCAUACAUGAGGAUCACCCAUGUAGAAGGGACUCUAC [Mat - Exclusion 2 - Eli Mod - D9] (Eterna round: R97, puzzle: Exclusion 2)
Result: 17.9

###

Test system: MS2 coat protein
Assay: apparent KD of MS2 coat protein; higher = weaker reporter binding
Settings: Eterna round: R107; input ligand: arginine 13.2 mM
Task for the reader: assign each of the following sequences its reported apparent KD of MS2 coat protein.
Output spec: scalar in nM, unitless text.

Request: Using known records, supply apparent KD of MS2 coat protein for GCUGUAAGUGCAGAUACCAGCAGGUGAUAUUUCUAAUGACAUGAGGAUCACCCAUGUAACUGCCCUUGGCAGCUGCACUUACAGC [SSTHB #8]
Result: 48.5

Request: Annotate the sequence GGAUUACGAAAGUAGUCCAUCAAGUUCGAGCGAGGACCGGUACGGCCGCCACUCGAACAUGAGGAUCACCCAUGUAGCGAAAGCU [Tryptophan A 21] with its measured apparent KD of MS2 coat protein.
Result: 116

Request: Consider the sequence AAAAUAAAUAAAACACGUAACAUGAAGGAUACCAGACAGGAAACUGUCCCUUGGCAGCCUCUACAUGAGGAUCACCCAUGUCGUG [Mat - Same State Theophlline A - Mod of Eli - D17] and give its recorded apparent KD of MS2 coat protein.
Result: 112

Request: Provide measured apparent KD of MS2 coat protein value, entry: AACGUAUACAGAAGGAGCGUGAAUUAUAUUACUCAUUCUUAUACAUGAGGAUCACCCAUGUCACAGGUAGGUCGCUGUAUUCGUA [JR_ExcArginiB_Sub019]
Result: 81.9

Request: Output apparent KD of MS2 coat protein of UGUAUGGACUGAAGGAGCGGAAAAUAAACCUGAGGAUCACCCGGGUAAUAGGCGAAAGCCAUCCAGGUAGGUCGCAGUCCAUACU
Result: 156

Request: Query apparent KD of MS2 coat protein for AACUGGACCCGUGAUACCAGAGACAUGAGGAUCACCCAUGUACAUGAGGAUCACCCAUGUCUCCCUUGGCAGCACCGCAGGGAGC [Exclusion Theophylline B GF 13]
Result: 45.7

###

Tested on: MS2 coat protein
Test: apparent KD of MS2 coat protein; designed switch direction (-1 OFF switch, 1 ON switch): -1; higher = weaker reporter binding
Conditions: input ligand: none
apparent KD of MS2 coat protein vs 60 nM: at or above is 1 (yes), below is 0 (no).

Request: Answer whether apparent KD of MS2 coat protein of AAAAGGAUAGGAUAUGCUCUAGGACACUUGAGGAUCACCCAAGUGUCGGCAAGGUCCUAGGCAGAAGGAUCUGGCA [Onordibi] (Eterna round: R97, puzzle: Exclusion 5) is greater than or equal to 60 nM.
Result: 0 (no)

Request: Decide: is the reported value of apparent KD of MS2 coat protein for GCAAGCUUAAUCUGUAUGAACAUGAGGAUCACCCAUGUAUAAGGUAAUUCUGUUGGGUUUUUUAUUGCUCGUCUUAU [JR_STOV1_Sub026] (Eterna round: R97, puzzle: Sensor, turn-off variant 1) equal to or greater than 60 nM?
Result: 1 (yes)

Request: Say whether CGAUGCUCGUGCCCACAUGAGGAUCACCCAUGUCGAGUCAGCGAGGAUAUCGGUGGCACAUAGUACGAGAAGGCGCGGACCUGA [Ex NG3 #18] (Eterna round: R96, puzzle: Exclusion NG 3) shows apparent KD of MS2 coat protein of 60 nM or more.
Result: 0 (no)

Request: State whether the measured apparent KD of MS2 coat protein reaches 60 nM, counting equality as reaching it, for AGGUGUAGAGGAUAUACUGCAAAGCACAUGAGGAUCACCCAUGUCCCUCUAUGGGAUUAUGUAGAAGGCUACACCA [Omei Ex5 C6] (Eterna round: R97, puzzle: Exclusion 5)
Result: 0 (no)

Request: Quick check, apparent KD of MS2 coat protein >= 60 nM? CUGCUGGAGCUUUGCUUUAGUCGUACAUGAGGAUCACCCAUGUAGGAUAUGGUAGGCUUUGCUUACUAGAAGGAUAGAGUGGUC [salish99_ExNG3_r04_606] (Eterna round: R96, puzzle: Exclusion NG 3)
Result: 1 (yes)

Request: Determine whether this sequence has apparent KD of MS2 coat protein no lower than 60 nM: UUUUACAGAGGAUAUGCGAAUAAAUAAAACUUUUUUUUUUAACAUGAGGAUCACCCAUGUAGAAGGCUGAUUUU [Ex2 #25] (Eterna round: R97, puzzle: Exclusion 2)
Result: 0 (no)

Request: Does AAUGACUGAGGAUAUUGUACUGCUGACAUGAGGAUCACCCAUGUAUGCUAACUCGGCCGUCGAGAAGGCAGUCAUG [BotMod 24 - Jieux - Exclusion 5] (Eterna round: R97, puzzle: Exclusion 5) have a reported apparent KD of MS2 coat protein of at least 60 nM?
Result: 0 (no)

Request: # check: apparent KD of MS2 coat protein of AGAGUGCUGCGAGGAUAUACAUGAGGAUCACCCAUGUAAACGUGUGAGGCAAAGCCUCACACGAUGUAGAAGGCGCAGUACUCA [Mat - Exclusion NG 2 - Mod of JL - D37] (Eterna round: R96, puzzle: Exclusion NG 2) is greater than or equal to 60 nM
Result: 0 (no)

Request: Could you please find out whether UUUAGUUUAGGAUAUGUAGAUUUUAACAUGAGGAUCACCCAUGUAGAUCCUGAAUUAACUACAGAAGGGAGCAUUU [Mod of Brourd 15 - Jieux - Exclusion 5] (Eterna round: R97, puzzle: Exclusion 5) has apparent KD of MS2 coat protein that meets 60 nM or exceeds it?
Result: 1 (yes)

Request: Given UUGUUACAUGAGGAUCACCCAUGUGAGGAUAUGAGUCAGUCACGGUGACGUGGCUGACUCAGAAGGCACAAAGG [Mat - Exclusion 1 - JL Mod - D40] (Eterna round: R97, puzzle: Exclusion 1) , state whether its apparent KD of MS2 coat protein is at least 60 nM.
Result: 1 (yes)

Request: Tell me whether apparent KD of MS2 coat protein is at least 60 nM here: UACAUGAGGAUCACCCAUGUUUUGUCGUGUAUGGUAUUUAUCUAGGAUAUCAAUGUAUAUAUUUAUGAGAAGGAGAAUAUUAAU [JMF's solution 42] (Eterna round: R96, puzzle: Exclusion NG 3)
Result: 0 (no)

Request: # check: apparent KD of MS2 coat protein of UGAUCUAGCGGAGGAUAUACAUGAGGAUCACCCAUGUAGAUAAGUGUACCGUAGUGCACUAUUGUGUAGAAGGCCGCUAGAUCU [JL ENG2 3.64] (Eterna round: R96, puzzle: Exclusion NG 2) is greater than or equal to 60 nM
Result: 0 (no)

Request: Determine whether this sequence has apparent KD of MS2 coat protein no lower than 60 nM: AAAAAGCUGAGAGGAUAUGGUGCCGAAACGGUGCUAGAAGGCUUUGCAAAAAAACAUGAGGAUCACCCAUGUUCAUGUAGAGAA [AK ExNG1-1.2] (Eterna round: R96, puzzle: Exclusion NG 1)
Result: 0 (no)

Request: Say whether GGAUAUAACGUAGGAUAUCUGAGAAACAGACGAAGAGAAGGACGACAUGAGGAUCACCCAUGUGAUCUAUCAAUAUUAUACAUG [Prohibition 99 - Jieux - Exclusion NG 1] (Eterna round: R96, puzzle: Exclusion NG 1) shows apparent KD of MS2 coat protein of 60 nM or more.
Result: 1 (yes)

Request: Threshold query (apparent KD of MS2 coat protein >= 60 nM) on AUCAGUCGAGGAUAUACGAUCGUGCUUCGGCACGUAAGAUCACAUGAGGAUCACCCAUGUAGAAGGCGACUGAU [Mod 8 - Jieux - Exclusion 2] (Eterna round: R97, puzzle: Exclusion 2)
Result: 0 (no)

Request: Determine whether this sequence has apparent KD of MS2 coat protein no lower than 60 nM: UACAUGAGGAUCACCCAUGUUUUGUCGUGUUUGGUACCCGUUUAGGAUAUCGUGUUAUUGGACCGCGAGAAGGAGAGUAUCUUU [Excl-NG3-LRO07] (Eterna round: R96, puzzle: Exclusion NG 3)
Result: 0 (no)

Request: State whether the measured apparent KD of MS2 coat protein reaches 60 nM, counting equality as reaching it, for AGUCCACUUACAAGCUUUUACAUGAGGAUCACCCAUGUGUGGGACCCUAAGGGUGCUCAUGACCGCUCCAUACUCUC [Eternabot (L1) Solution 4] (Eterna round: R97, puzzle: Sensor, turn-off variant 1)
Result: 1 (yes)

Request: Entry ACAUCACAGCUAGGAUAUAGAUGACAUGAGGAUCACCCAUGUUAUCCCAUGUUGACGAAAACCGACUAGAAGGAGCUACAGAUG [Ex NG2 #6] (Eterna round: R96, puzzle: Exclusion NG 2) : is its apparent KD of MS2 coat protein no less than 60 nM?
Result: 1 (yes)
